# assay.overview: Cytotoxicity against human CaSki cells assessed as inhibition of cell proliferation at 10 uM after 24 hrs by CellTiter96 assay
# Format: cell-based
# condition.parameters: ca-ski
result.type: Activity

Worked cases, Activity given:
CCOC(=O)c1cn(Cc2cccc(Cl)c2F)c2nc(N3CCN(c4nccs4)CC3)ccc2c1=O
Non-toxic
O=C(O)c1cn(Cc2cccc(Cl)c2F)c2nc(N3CCN(c4nccs4)CC3)ccc2c1=O
Non-toxic
O=C(O)c1cn(Cc2cccc(Cl)c2F)c2nc(N3CCN(c4ccccn4)CC3)ccc2c1=O
Non-toxic
CCOC(=O)c1cn(Cc2cccc(Cl)c2F)c2nc(N3CCN(c4nc5ccccc5s4)CC3)ccc2c1=O
Non-toxic
O=C(O)c1cn(Cc2ccccc2)c2nc(N3CCN(c4nc5ccccc5s4)CC3)ccc2c1=O
Non-toxic

Task: Tell me measured Activity for CCOC(=O)c1cn(Cc2ccccc2)c2nc(N3CCN(c4nc5ccccc5s4)CC3)ccc2c1=O please.
Result: Non-toxic

Task: Tell me measured Activity for CCOC(=O)c1cn(Cc2ccc3[nH]ccc3c2)c2nc(N3CCN(c4nc5ccccc5s4)CC3)ccc2c1=O please.
Result: Non-toxic

Task: Tell me measured Activity for CCOC(=O)c1cn(Cc2ccc(Cl)cc2)c2nc(N3CCN(c4nc5ccccc5s4)CC3)ccc2c1=O please.
Result: Non-toxic

Task: Tell me measured Activity for O=C(O)c1cn(Cc2cccc(Cl)c2F)c2nc(N3CCN(c4nc5ccccc5s4)CC3)ccc2c1=O please.
Result: Non-toxic
